# Tested on: MDA-MB-435
// classify into active, inactive

Record excerpt, results attached:
compound | groupLabel
CCCCCCCCCCCCCCCC[N+](C)(C)Cc1ccccc1 | inactive
O=C(CCCSc1nc(-c2ccccc2)cc(-c2ccccc2)n1)NO | inactive
Nc1cc(NN=C(c2ccc(O)cc2)c2ccc(O)cc2)c([N+](=O)[O-])cc1[N+](=O)[O-] | inactive
Cc1nnc(NC(=O)c2nc(S(=O)(=O)Cc3ccc(F)cc3)ncc2Cl)s1 | inactive
CCCOc1cc2ccccc2cc1C(=O)Nc1nc(N)c2c(ccc3nccc32)[nH]1 | active
O=C(Oc1ccc(Cl)cc1)c1ccccc1Nc1ccnc(C(F)(F)F)c1 | inactive
C=C1C(=O)O[C@H]2[C@H]1CC/C(COC(=O)NCc1ccc(Cn3c(=O)sn(-c4ccc(OC)cc4)c3=O)cc1)=C\CC[C@@]1(C)O[C@@H]21 | inactive
COC[C@H]1Cn2cc(-c3nc(Nc4ccnn4C)ncc3C)nc2C(=O)N1Cc1ccc(F)c(F)c1 | active

What was the test verdict on CC(C)[C@@H]1C=C2CC[C@H]3[C@](C)(CN)CCC[C@]3(C)[C@H]2CC1 ?
inactive

What was the test verdict on CCN1C(=O)N(c2ccccc2)C2NC(=S)N(/N=C/C=C/c3ccccc3OC)C21 (stereo not given) ?
active

---

# Test system: PC-3 prostate
# experimentNotes: NCI tumour cell line growth inhibition, 48 h
# TGI annotations

Worked cases, answers included:
chemicalSmiles | TGI
Nc1n[nH]c2cccc(C#Cc3cccc(C(=O)Nc4ccc(CN5CCOCC5)c(C(F)(F)F)c4)c3)c12 | 7.79 µM
COc1cccc(-c2nc(-c3ccc(NC(=O)OC(C)C)cc3)[nH]c2-c2ccnc(Br)c2)c1 | > 100 µM
O=C(O)c1nc2nc(Cl)c(Cl)nc2[nH]1 | > 100 µM
Cc1oc2c(cc(O)c3cc(O)ccc32)c2cccc1-2 | > 100 µM
Oc1ccc2c(c1)c1c(n2CCN2CCOCC2)-c2ccccc2CC1 | > 100 µM

Would you kindly look at the next entry?
Tell me reported TGI for COc1cccc(Nc2nc(-c3cccs3)nc3cc(OC)c(OC)cc23)c1 , tested with PC-3 prostate.
92.7 µM

---

# TGI annotations
# Test system: SNB-19 CNS
# experimentNotes: NCI tumour cell line growth inhibition, 48 h
// note: answer is a bare numeric in µM

Worked cases, answers included:
compound | measuredQuantity | experimentalResult
CCCCCCCCCCn1cc[n+](C)c1 | TGI | 32.9
CCCCCCCCCCCCC(O)c1ccc(C#CCCCCCCCCCO)o1 (stereo unspecified) | TGI | 83.1
Cc1cc(I)cc(CN(CCCN(C)C)C(C)C)c1O | TGI | 42.5

Would you kindly look at the next entry?
Returns the measured TGI for the input compound. Input: CC1=C2C(=C[C@@](C)(CO)[C@@H]2O)C(=O)[C@](C)(O)C12CC2
0.0921

---

# Tested on: OVCAR-4 ovarian
# experimentNotes: NCI tumour cell line growth inhibition, 48 h
measuredQuantity: TGI (µM)
// note: answer is a bare numeric in µM

Worked cases, answers included:
molecule | measuredQuantity | experimentalResult
CN(C)CC1CC/C(=C\c2ccc(O)cc2)C1=O (stereo unspecified) | TGI | 18.5
C[C@]12CCC3C4=C(CCC3C1CCC2=O)C(=O)[C@H]1O[C@H]1C4=O (stereo partly specified) | TGI | 7.96
O=C(/C=C/c1ccc2c(c1)OCO2)c1ccc(O)cc1 | TGI | 38.8

Would you kindly look at the next entry?
Tell me reported TGI for O=C(/C=C/c1ccc([N+](=O)[O-])cc1)c1ccc(NCc2nc3ccccc3[nH]2)cc1 , tested with OVCAR-4 ovarian.
27.8

---

# Test system: IGROV1 ovarian
# experimentNotes: NCI tumour cell line growth inhibition, 48 h; in the data active means GI50 below about 0.43 µM; inactive means the rest
// classify into true (1) = active, false (0) = inactive

Record excerpt, results attached:
compound | groupLabel
COc1cccc(C(=O)NC(c2ccc(C)cc2)c2cc(Cl)c3cccnc3c2O)c1 (stereo not drawn) | false (0)
Cc1csc(-c2nnc(Nc3ccc(Oc4ncccc4-c4ccnc(N)n4)cc3)c3ccccc23)c1 | false (0)

With those in mind, consider the next compound.
What was the test verdict on O=C1c2cc3c(cc2-c2c1c1ccc(F)cc1c(=O)n2C[C@H](O)[C@@H](O)[C@H](O)CO)OCO3 ?
true (1)

---

# System: HL-60(TB) leukemia
# experimentNotes: NCI tumour cell line growth inhibition, 48 h; in the data active means GI50 below about 0.43 µM; inactive means the rest
Square brackets hold non-standard residues; d marks the D form. Peptide text beside a SMILES is read from it. * marks the point of attachment. ξ: configuration not given here. Boc = CC(C)(C)OC(=O)*; ξV = CC(C)C(N)C(=O)O; OBn = c1ccc(CO*)cc1
// classify into active, inactive

Record excerpt, results attached:
compound | testedSystem | groupLabel
O=C(Nc1ccc(Oc2ccc(Nc3nc4ccccc4s3)cc2)cc1)Nc1ccc(Cl)c(C(F)(F)F)c1 | HL-60(TB) leukemia | inactive
COc1cc(/C(C#N)=C/c2nc3c(N4CCOCC4)nc(Cl)nc3n2C)cc(OC)c1OC | HL-60(TB) leukemia | active
Nc1cc(NN=C(c2ccc(O)cc2)c2ccc(O)cc2)c([N+](=O)[O-])cc1[N+](=O)[O-] | HL-60(TB) leukemia | inactive

What was the test verdict on COCCOc1ccc(-c2nc3ccc(-c4nc5ccc(N6CCN(C)CC6)cc5[nH]4)cc3[nH]2)cc1 ?
inactive

What was the test verdict on CCN(Cc1ccc(F)cc1)c1cc(Cl)c(CO)c(Cl)c1 ?
inactive

What was the test verdict on Cc1ccc(-n2c3nc(=O)[nH]c(=O)c-3cc3cc([N+](=O)[O-])ccc32)cc1 ?
inactive

What was the test verdict on CC(C)C(NC(=O)CNC(=O)OC(C)(C)C)C(=O)OCc1ccccc1 (stereo not drawn) (Boc-Gly-[ξV]-OBn) ?
inactive

What was the test verdict on CCOC(=O)C1=C(C)N(c2ccc(F)cc2F)[C@]2(C#N)C(O)=C(Cl)C(Cl)=C(O)[C@]12C#N ?
inactive

What was the test verdict on CCN1C(=O)N(c2ccccc2)C2NC(=S)N(/N=C/C=C/c3ccccc3OC)C21 (centres undefined) ?
active

---

# TGI annotations
# System: HCT-15 colon
# experimentNotes: NCI tumour cell line growth inhibition, 48 h

Worked cases, answers included:
compound | measuredQuantity | experimentalResult
COc1ccc(C)cc1-c1cc(Sc2ccccc2)c(-c2cc(C)ccc2OC)o1 | TGI | > 31.6 µM
COc1ccc(OC)c(N2CC(N)C2=O)c1 (stereo unspecified) | TGI | > 100 µM
Cc1ccc(-n2c3nc(=O)[nH]c(=O)c-3cc3cc([N+](=O)[O-])ccc32)cc1 | TGI | > 100 µM
NC(=O)C(=Cn1c(=S)[nH]c2ccc([N+](=O)[O-])cc21)C(N)=O | TGI | > 100 µM
C#CCn1c(=O)c2ccccc2n(CC#C)c1=O | TGI | > 10 µM
Nc1c(-c2ccc(Cl)c(Cl)c2)c2ccc([N+](=O)[O-])cc2c(=O)n1-c1nc2ccccc2s1 | TGI | > 47 µM
COc1cccc(C2SC(N)=Nc3c2c(C)nn3C(=O)c2ccccc2O)c1 (stereo unspecified) | TGI | > 10 µM
Cc1cc(-c2nc3ccc(F)cc3s2)ccc1NC(=O)[C@H](C)N | TGI | 14.1 µM
COc1ccc(-c2[nH]c3c4c(nc5c(c24)C(=O)CC(C)(C)C5)CC(C)(C)C3)cc1 | TGI | > 100 µM
Oc1ccc2c(c1)c1c(n2CCN2CCOCC2)-c2ccccc2CC1 | TGI | 66.1 µM

Would you kindly look at the next entry?
Returns the measured TGI for the input compound. Input: O=C1CCCCC1CN1CCCCC1 (stereo unspecified)
> 100 µM

---

# Tested on: HS 578T breast
# experimentNotes: NCI tumour cell line growth inhibition, 48 h
Where a SMILES comes first, the peptide text is derived from it. [ ]: non-standard residue; d: D form. The star is where a group is joined. ξ: configuration not given here. X3 = COc1ccc(C(N*)c2ccc(OC)cc2)cc1; NMeF = CN[C@@H](Cc1ccccc1)C(=O)O; NMeD = CN[C@@H](CC(=O)O)C(=O)O; NMeV = CN[C@H](C(=O)O)C(C)C; ξNMeV = CNC(C(=O)O)C(C)C; Boc = CC(C)(C)OC(=O)*; ξNMeA = CNC(C)C(=O)O; ξV = CC(C)C(N)C(=O)O
measuredQuantity: TGI

Worked cases, answers included:
compound | testedSystem | TGI
S=C(N/N=C(/c1ccccc1)c1ccccn1)N(Cc1ccccn1)Cc1ccccn1 | HS 578T breast | > 29.8 µM
c1ccc2c(c1)Cn1c-2nc2ccccc21 | HS 578T breast | > 100 µM
O=C(Nc1ccc(Oc2ccc(Nc3nc4ccccc4s3)cc2)cc1)Nc1ccc(Cl)c(C(F)(F)F)c1 | HS 578T breast | 7.55 µM
CCCCCC1=CC(=O)C1(Cl)Cl | HS 578T breast | > 81.3 µM
CC1CN(C)c2ccccc2N=C1NN (stereo not drawn) | HS 578T breast | > 100 µM

Returns the measured TGI for the input compound. Input: N#CC(Cc1ccccc1)N(CCC1=CCCCC1)C(c1ccccc1)c1ccccc1 (stereo not drawn)
> 100 µM

Returns the measured TGI for the input compound. Input: CCN1C(=O)N(c2ccccc2)C2NC(=S)N(/N=C/C=C/c3ccccc3OC)C21 (stereo not drawn)
> 100 µM

Returns the measured TGI for the input compound. Input: COc1ccc(C(NC(=O)C[C@@H](C(=O)N(C)C(C)C(=O)O)N(C)C(=O)[C@@H]2CCCN2C(=O)[C@H](C(C)C)N(C)C(=O)C(C(C)C)N(C)C(=O)[C@H](Cc2ccccc2)N(C)C(=O)C(NC(=O)OC(C)(C)C)C(C)C)c2ccc(OC)cc2)cc1 (stereo partly drawn) (Boc-[ξV][NMeF][ξNMeV][NMeV]P[NMeD](X3)[ξNMeA]-OH)
7.32 µM
